Known koff of a selection of binders
Molecular target: T1, human soluble urokinase plasminogen activator receptor (suPAR) (human, UniProt Q03405 23-303, limits assumed)
T1 construct: Target antigen of the off-rate screen; also called hsuPAR; human suPAR
T1 sequence (Q03405 23-303 limits assumed): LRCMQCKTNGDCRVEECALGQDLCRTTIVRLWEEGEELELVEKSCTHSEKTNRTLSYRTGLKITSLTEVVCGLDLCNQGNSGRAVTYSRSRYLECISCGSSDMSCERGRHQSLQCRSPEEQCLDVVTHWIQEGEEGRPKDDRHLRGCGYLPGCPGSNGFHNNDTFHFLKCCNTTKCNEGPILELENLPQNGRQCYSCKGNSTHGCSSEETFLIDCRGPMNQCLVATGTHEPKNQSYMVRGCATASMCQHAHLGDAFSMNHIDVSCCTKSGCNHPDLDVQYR
Experiment: off-rate (kdis) screen of scFv clones, biosensor (Octet)
State just the number; it will be interpreted in s⁻¹.

>>> readoutvalue("suPAR_DB01_D01 (scFv, V domains shown, screened as scFv) VH: QVQLVQSGAEVKKPGASVKVSCKASGYTFTGYYMHWVRQAPGQGLEWMGWIDHENGSTIYAQKFQGRVTMTRDTSTSTVYMELSSLRSEDTAVYYCARGYDVDWFVYWGQGTLVTVSS VL: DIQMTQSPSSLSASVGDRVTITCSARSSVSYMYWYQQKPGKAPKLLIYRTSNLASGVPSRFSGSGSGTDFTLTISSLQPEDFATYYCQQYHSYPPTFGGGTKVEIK")
0.000531
>>> readoutvalue("suPAR_DB01_C12 (scFv, V domains shown, screened as scFv) VH: QVQLVQSGAEVKKPGASVKVSCKASGDTFTSYYMHWVRQAPGQGLEWMGWIDHENGNTIYDQKFQGRVTMTRDTSTSTVYMELSSLRSEDTAVYYCARGYDVDWFVYWGQGTLVTVSS VL: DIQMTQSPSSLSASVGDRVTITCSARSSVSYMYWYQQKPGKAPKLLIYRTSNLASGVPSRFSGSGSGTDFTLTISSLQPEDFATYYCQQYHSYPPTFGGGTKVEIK")
0.00493

# next binder below
// query Name the recorded koff for suPAR_DB01_D03 (scFv, V domains shown, screened as scFv) VH: QVQLVQSGAEVKKPGASVKVSCKASGGTFTNYYMHWVRQAPGQGLEWMGWIDHENGNTIYDQKFQGRVTMTRDTSTSTVYMELSSLRSEDTAVYYCARGYDVDWFVYWGQGTLVTVSS VL: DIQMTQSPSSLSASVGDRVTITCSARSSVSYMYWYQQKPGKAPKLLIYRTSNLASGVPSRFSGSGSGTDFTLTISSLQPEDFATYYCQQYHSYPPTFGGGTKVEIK .
// result 0.00362
